protocolSummary: Stability of peptides in human liver microsomes
Format: in vitro ADME
runParameters: human, microsomes
Where a SMILES comes first, the peptide text is derived from it. [ ]: non-standard residue; d: D form. ξ: configuration not given here. ξαMePhe(2-F) = CC(N)(Cc1ccccc1F)C(=O)O; Cit = NC(=O)NCCC[C@H](N)C(=O)O; Nle = CCCC[C@H](N)C(=O)O; Aib = CC(C)(N)C(=O)O
reportedMetric: half-life (min)
Supply the numeric figure in min, leaving out any unit text.

Item: CCCC[C@H](NC(=O)C(C)(Cc1ccccc1F)NC(=O)[C@H](CCC(N)=O)NC(=O)[C@@H](NC(=O)[C@H](CCC(=O)O)NC(=O)C(C)(C)NC(=O)[C@@H](NC(=O)C(C)(C)N)C(C)C)[C@@H](C)CC)C(=O)N[C@@H](Cc1c[nH]cn1)C(=O)N[C@@H](CCC(N)=O)C(=O)N[C@@H](CCCNC(N)=O)C(=O)N[C@@H](C)C(=O)N[C@@H](CCCNC(N)=O)C(=O)NC(C)(Cc1ccccc1F)C(N)=O (stereo partly shown) [Seq. ID. 345] (H-[Aib]V[Aib]EIQ[ξαMePhe(2-F)][Nle]HQ[Cit]A[Cit][ξαMePhe(2-F)]-NH2) | half-life: 30
